Target: Recombinant ROCK2 (amino acids 5-554) (Homo sapiens)
Construct: ROCK2 (amino acids 5-554)
Test: ROCK inhibition assay, LANCE Ultra TR-FRET kinase assay
Format: biochemical
Settings: at Km of ATP (table title); method: 1 mM ATP, 50 nM ULight-CREBtide substrate, 1 hour, room temperature; hydrochloride
pIC50: −log10 of the molar value. Counter-ions that a name gives are not always drawn.
measuredParameter: pIC50

1) COc1n[nH]cc1-c1cc2c(cn1)c(C(=O)C1COc3ccc(Cl)cc3C1)cn2CCO (stereo not shown) [Compound 1-59, hydrochloride] : 7.30 to 7.96

###

Target: Recombinant ROCK2 (amino acids 5-554) (Homo sapiens, UniProt O75116)
Construct: ROCK2 (amino acids 5-554)
Sequence (O75116 5-554): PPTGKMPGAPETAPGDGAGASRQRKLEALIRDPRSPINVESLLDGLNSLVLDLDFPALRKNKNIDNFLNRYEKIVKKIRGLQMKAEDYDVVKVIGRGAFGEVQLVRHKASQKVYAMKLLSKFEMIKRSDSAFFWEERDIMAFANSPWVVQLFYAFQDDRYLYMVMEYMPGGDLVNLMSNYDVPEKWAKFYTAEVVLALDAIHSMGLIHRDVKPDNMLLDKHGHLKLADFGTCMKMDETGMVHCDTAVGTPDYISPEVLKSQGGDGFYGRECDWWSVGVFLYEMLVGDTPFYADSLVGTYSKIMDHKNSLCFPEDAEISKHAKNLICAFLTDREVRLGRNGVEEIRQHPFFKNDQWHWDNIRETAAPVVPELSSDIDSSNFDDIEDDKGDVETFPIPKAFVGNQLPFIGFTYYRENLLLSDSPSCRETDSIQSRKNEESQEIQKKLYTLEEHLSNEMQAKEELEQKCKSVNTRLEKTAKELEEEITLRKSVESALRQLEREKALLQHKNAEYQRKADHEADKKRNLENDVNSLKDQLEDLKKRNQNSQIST
Test: ROCK inhibition assay, LANCE Ultra TR-FRET kinase assay
Assay type: biochemical
Settings: at Km of ATP (table title); method: 1 mM ATP, 50 nM ULight-CREBtide substrate, 1 hour, room temperature
This listing pairs compounds with measured IC50.
measuredParameter: IC50

1) CC(C)(O)Cn1cc(C(=O)[C@@H]2COc3ccc(Cl)cc3C2)c2cnc(-c3c[nH]nc3Cl)cc21 [Compound 1-17] : < 10 nM
2) COc1n[nH]cc1-c1ccc2c(C(=O)C3COc4ccc(Cl)cc4C3)nn(C[C@@H](C)O)c2c1 (stereo partly drawn) : 11 to 50 nM
3) COc1ccc2c(c1)OC(C(=O)c1cn(CCO)c3cc(-c4cn[nH]c4)ccc13)CO2 (stereo not drawn) : < 10 nM
4) O=C(c1cn(CCO)c2cc(-c3cn[nH]c3)ccc12)C1COc2ccccc2C1 (stereo not drawn) : 11 to 50 nM
5) O=C(c1cn(CCO)c2cc(-c3cn[nH]c3)ccc12)C1COc2ccc(Cl)cc2C1 (stereo not drawn) : < 10 nM
6) CC(C)(O)Cn1cc(C(=O)C2COc3ccc(Cl)cc3C2)c2cnc(-c3c[nH]nc3Cl)cc21 (stereo not drawn) : < 10 nM
7) O=C(c1cn(CCO)c2cc(-c3cn[nH]c3)ccc12)C1COc2ccccc2O1 (stereo not drawn) : < 10 nM
8) COc1ccc2c(c1)C[C@H](C(=O)c1cn(C[C@H](C)O)c3cc(-c4cn[nH]c4F)ncc13)CO2 : < 10 nM
9) O=C(c1cn(CCO)c2cc(-c3c[nH]nc3Cl)ccc12)C1COc2ccccc2C1 (stereo not drawn) : < 10 nM
10) COc1n[nH]cc1-c1ccc2c(C(=O)C3Cc4ccccc4O3)nn(CCO)c2c1 (stereo not drawn) : 51 to 500 nM
11) C[C@@H](O)Cn1cc(C(=O)[C@@H]2COc3ccc(F)cc3C2)c2cnc(-c3cn[nH]c3F)nc21 [Compound 1-50] : < 10 nM
12) COc1[nH]ncc1-c1cc2c(cn1)c(C(=O)C1COc3ccc(Cl)cc3C1)cn2CCN(C)C (stereo not drawn) : < 10 nM
13) COc1n[nH]cc1-c1ccc2c(C(=O)[C@@H]3COc4ccc(F)cc4C3)cn(CCO)c2c1 (single isomer, unassigned) : < 10 nM
14) C[C@H](O)Cn1cc(C(=O)C2COc3ccc(Cl)cc3C2)c2cnc(-c3cn[nH]c3Cl)cc21 (stereo partly drawn) : < 10 nM
15) C[C@H](O)Cn1cc(C(=O)[C@@H]2COc3ccc(Cl)cc3C2)c2cnc(-c3cn[nH]c3Cl)cc21 [Compound 1-11] : 11 to 50 nM
